The measured values listed here are drawn from ChEMBL document CHEMBL1122863.

Molecular target: Renin (Homo sapiens)
Sequence (P00797 whole entry): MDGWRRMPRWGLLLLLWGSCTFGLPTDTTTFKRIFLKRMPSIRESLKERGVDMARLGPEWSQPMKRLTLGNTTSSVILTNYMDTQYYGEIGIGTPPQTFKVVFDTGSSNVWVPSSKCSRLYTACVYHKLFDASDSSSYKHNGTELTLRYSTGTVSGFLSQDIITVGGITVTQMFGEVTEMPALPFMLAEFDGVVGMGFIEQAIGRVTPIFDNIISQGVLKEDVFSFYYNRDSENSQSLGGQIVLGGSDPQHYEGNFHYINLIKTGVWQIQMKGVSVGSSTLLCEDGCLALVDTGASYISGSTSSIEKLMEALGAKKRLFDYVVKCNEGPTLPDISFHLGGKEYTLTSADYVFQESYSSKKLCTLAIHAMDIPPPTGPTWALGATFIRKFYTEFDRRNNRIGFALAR
Residues, ends and D or L forms follow the SMILES beside them.
Quantity kind: pKi
pKi field: float, defined as -log10 of concentration (mol/L).

CC(C)C[C@H](NC(=O)C[C@H](O)[C@H](CC1CCCCC1)NC(=O)[C@H](Cc1c[nH]cn1)NC(=O)[C@H](Cc1ccccc1)NC(=O)OC(C)C)C(=O)N[C@@H](Cc1ccccc1)C(N)=O (HELM PEPTIDE1{[CC(C)OC(=O)[*:2]].F.H.[O=C(C[C@H](O)[C@H](CC1CCCCC1)N[*:1])[*:2]].L.F.[am]}$$$$V2.0): 8.96

Request: Fill in the blank: the reported pKi of CCOC(=O)N[C@@H](Cc1ccccc1)C(=O)N[C@@H](Cc1c[nH]cn1)C(=O)N[C@@H](CC1CCCCC1)[C@@H](O)CC(=O)N[C@@H](CC(C)C)C(=O)N[C@@H](Cc1ccccc1)C(N)=O (HELM PEPTIDE1{[CCOC(=O)[*:2]].F.H.[O=C(C[C@H](O)[C@H](CC1CCCCC1)N[*:1])[*:2]].L.F.[am]}$$$$V2.0) is ____.
Response: 9.28

Request: Moving on to the next compound: CC(C)C[C@H](NC(=O)C[C@H](O)[C@H](CC1CCCCC1)NC(=O)[C@H](Cc1c[nH]cn1)NC(=O)[C@H](Cc1ccccc1)NC(=O)OC(C)(C)C)C(=O)N[C@@H](Cc1ccccc1)C(N)=O (HELM PEPTIDE1{[CC(C)(C)OC(=O)[*:2]].F.H.[O=C(C[C@H](O)[C@H](CC1CCCCC1)N[*:1])[*:2]].L.F.[am]}$$$$V2.0)
Response: 9.06

Request: And for CC(C)C[C@H](NC(=O)C[C@H](O)[C@H](CC(C)C)NC(=O)[C@H](Cc1c[nH]cn1)NC(=O)COc1ccccc1)C(=O)N[C@@H](Cc1ccccc1)C(N)=O (HELM PEPTIDE1{[O=C(COc1ccccc1)[*:2]].H.[CC(C)C[C@H](N[*:1])[C@@H](O)CC(=O)[*:2]].L.F.[am]}$$$$V2.0) ?
Response: 5.39

----------
// values below are reported IC50
Target: Renin (Homo sapiens, UniProt P00797)
Assay: Inhibition of human plasma renin
Residues, ends and D or L forms follow the SMILES beside them.
# number only, unit nM dropped from output

# annotated cases, reported IC50 shown
CCOC(=O)N[C@@H](Cc1ccccc1)C(=O)N[C@@H](Cc1c[nH]cn1)C(=O)N[C@@H](CC1CCCCC1)[C@@H](O)CC(=O)N[C@@H](CC(C)C)C(=O)N[C@@H](Cc1ccccc1)C(N)=O (HELM PEPTIDE1{[CCOC(=O)[*:2]].F.H.[O=C(C[C@H](O)[C@H](CC1CCCCC1)N[*:1])[*:2]].L.F.[am]}$$$$V2.0): 0.76
CC(C)C[C@H](NC(=O)C[C@H](O)[C@H](CC1CCCCC1)NC(=O)[C@H](Cc1c[nH]cn1)NC(=O)COc1ccccc1)C(=O)N[C@@H](Cc1ccccc1)C(N)=O: 1000

Please look at the following molecule next.
Request: Looking for the measured IC50 of CC(C)C[C@H](NC(=O)C[C@H](O)[C@H](CC1CCCCC1)NC(=O)[C@H](Cc1c[nH]cn1)NC(=O)[C@H](Cc1ccccc1)NC(=O)OC(C)C)C(=O)N[C@@H](Cc1ccccc1)C(N)=O (HELM PEPTIDE1{[CC(C)OC(=O)[*:2]].F.H.[O=C(C[C@H](O)[C@H](CC1CCCCC1)N[*:1])[*:2]].L.F.[am]}$$$$V2.0) , can you help?
Response: 5.1
